Values compiled from patent US8357707B2.

log10(IC50) tested on PI3Kδ (Homo sapiens, UniProt O00329): recorded values
Sequence (O00329 with tags, fused parts or gaps): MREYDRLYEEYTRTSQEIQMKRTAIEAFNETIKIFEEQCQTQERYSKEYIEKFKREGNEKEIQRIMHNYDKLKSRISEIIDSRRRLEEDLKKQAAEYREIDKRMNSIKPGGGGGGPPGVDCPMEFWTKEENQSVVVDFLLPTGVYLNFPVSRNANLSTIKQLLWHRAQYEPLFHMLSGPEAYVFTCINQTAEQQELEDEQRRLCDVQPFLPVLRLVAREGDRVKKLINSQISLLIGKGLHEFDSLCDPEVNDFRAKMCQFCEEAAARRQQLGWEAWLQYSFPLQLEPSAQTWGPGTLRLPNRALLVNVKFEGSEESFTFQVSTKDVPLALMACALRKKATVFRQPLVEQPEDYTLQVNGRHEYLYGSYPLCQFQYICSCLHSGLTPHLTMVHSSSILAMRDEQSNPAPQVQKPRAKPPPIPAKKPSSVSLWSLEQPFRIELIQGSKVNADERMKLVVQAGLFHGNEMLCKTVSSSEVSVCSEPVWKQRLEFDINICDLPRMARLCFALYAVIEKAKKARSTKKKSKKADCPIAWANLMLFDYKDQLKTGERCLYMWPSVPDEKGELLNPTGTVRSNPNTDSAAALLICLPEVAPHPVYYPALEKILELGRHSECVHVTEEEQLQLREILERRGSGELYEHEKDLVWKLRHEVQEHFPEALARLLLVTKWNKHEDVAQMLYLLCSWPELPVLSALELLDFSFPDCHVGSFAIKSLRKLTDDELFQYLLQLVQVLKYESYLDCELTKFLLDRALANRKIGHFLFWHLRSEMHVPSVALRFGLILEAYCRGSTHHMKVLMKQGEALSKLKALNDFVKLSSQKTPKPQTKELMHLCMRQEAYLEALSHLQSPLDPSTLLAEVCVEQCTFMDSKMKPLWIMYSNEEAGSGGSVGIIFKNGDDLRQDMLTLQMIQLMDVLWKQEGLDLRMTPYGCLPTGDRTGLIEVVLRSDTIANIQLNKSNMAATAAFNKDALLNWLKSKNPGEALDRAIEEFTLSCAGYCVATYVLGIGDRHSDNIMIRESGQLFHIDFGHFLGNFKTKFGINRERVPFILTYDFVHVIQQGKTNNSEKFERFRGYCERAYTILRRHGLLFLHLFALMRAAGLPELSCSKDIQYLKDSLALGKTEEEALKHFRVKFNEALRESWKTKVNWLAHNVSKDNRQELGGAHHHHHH
Hello, just confirming the data are log10 of IC50 with units of nM.

Example entries and their recorded answers appear below.
[[record]]
molecule = "CC(C)(C)c1ncc2c(n1)-c1sc(NC(=O)N3CC[C@@H](CN4CCOCC4)[C@H]3C(N)=O)nc1CC2"
assay_readout = "log10(IC50)"
measured_number = 1.28

[[record]]
molecule = "CCN(CC)c1ncc2c(n1)-c1sc(NC(=O)N3CCC[C@H]3C(N)=O)nc1CC2"
assay_readout = "log10(IC50)"
measured_number = 1.72

[[record]]
molecule = "COC[C@@H]1CCN(C(=O)Nc2nc3c(s2)-c2nc(C(C)(C)C)ncc2CC3)[C@@H]1C(N)=O"
assay_readout = "log10(IC50)"
measured_number = 1.51

[[record]]
molecule = "C[C@@H]1CCN(C(=O)Nc2nc3c(s2)-c2cc(C(C)(C)C(F)(F)F)ncc2OC3)[C@@H]1C(N)=O"
assay_readout = "log10(IC50)"
measured_number = 1.28

[[record]]
molecule = "CN(Cc1cccc(F)c1)C[C@@]1(C(N)=O)CCCN1C(=O)Nc1nc2c(s1)-c1nc(C(C)(C)C)ncc1CC2"
assay_readout = "log10(IC50)"
measured_number = 1.73

[[record]]
molecule = "CCN(CC)c1ncc2c(n1)-c1sc(NC(=O)N3CC[C@@H](C)[C@H]3C(N)=O)nc1CC2"
assay_readout = "log10(IC50)"
measured_number = 1.56

[[record]]
molecule = "CC(C)(C)c1ncc2c(n1)-c1sc(NC(=O)N3CC[C@@H](O)[C@H]3C(N)=O)nc1CC2"
assay_readout = "log10(IC50)"
measured_number = 1.64

[[record]]
molecule = "CCN(CC)c1ncc2c(n1)-c1sc(NC(=O)N3CC[C@H]3C(N)=O)nc1CC2"
assay_readout = "log10(IC50)"
measured_number = 2.07

[[record]]
molecule = "CC(C)(C)c1nc2c(s1)CCc1nc(NC(=O)N3CC[C@@H](CN4CCOCC4)[C@H]3C(N)=O)sc1-2"
assay_readout = "log10(IC50)"
measured_number = 2.70

[[record]]
molecule = "CC(C)(C)c1nc2c(s1)CCc1nc(NC(=O)N3CC[C@H]3C(N)=O)sc1-2"
assay_readout = "log10(IC50)"
measured_number = 2.47


Find log10(IC50) (PI3Kδ (Homo sapiens, UniProt O00329)) for the entry `CCN(CC)c1ncc2c(n1)-c1sc(NC(=O)N3C[C@H](O)C[C@H]3C(N)=O)nc1CC2`
1.86

Find log10(IC50) (PI3Kδ (Homo sapiens, UniProt O00329)) for the entry `CN(C)[C@@H]1C[C@@H](C(N)=O)N(C(=O)Nc2nc3c(s2)-c2nc(C(C)(C)C)sc2CC3)C1`
3.29
